B1: library; numbered along this chain (parent)
chain: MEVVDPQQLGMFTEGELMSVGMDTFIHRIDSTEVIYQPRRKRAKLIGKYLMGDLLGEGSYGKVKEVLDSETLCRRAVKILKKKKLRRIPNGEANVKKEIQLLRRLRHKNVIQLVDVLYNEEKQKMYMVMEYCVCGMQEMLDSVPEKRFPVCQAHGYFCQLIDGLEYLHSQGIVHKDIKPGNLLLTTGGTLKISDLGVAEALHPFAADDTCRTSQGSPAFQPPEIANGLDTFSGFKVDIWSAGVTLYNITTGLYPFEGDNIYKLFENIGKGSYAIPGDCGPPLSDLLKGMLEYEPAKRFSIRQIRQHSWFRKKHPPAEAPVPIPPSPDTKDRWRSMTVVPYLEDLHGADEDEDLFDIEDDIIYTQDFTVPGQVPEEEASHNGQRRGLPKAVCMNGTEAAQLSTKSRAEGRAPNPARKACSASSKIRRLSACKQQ

Variants of: B1
Assay explanation: STK11 functional score (HeLa growth suppression), rescaled enrichment; synonymous median = 1, nonsense median = 0 (normalised score)
Condition notes: with HeLa; variant type: missense
# note: boundary value 1 maps to 0 (no); STK11 functional score below it maps to 1 (yes)

Variant: W239R
Group: 1 (yes)
--
Variant: Q371P
Group: 0 (no)
--
Variant: L55C
Group: 0 (no)
--
Variant: N259Y
Group: 0 (no)
--
Variant: K388V
Group: 0 (no)
--
Variant: A429D
Group: 0 (no)
--
Variant: N109V
Group: 1 (yes)
--
Variant: P179M
Group: 1 (yes)
--
Variant: R86G
Group: 0 (no)
--
Variant: Q170C
Group: 0 (no)
--
Variant: Y362H
Group: 0 (no)
